- Test system: HL-60(TB) leukemia
- Experiment Summary: NCI-60 one-dose screen, 48 h (100 = growth as untreated, 0 = no growth, -100 = all killed)
- Cond: 10 µM unless noted
The panel holds about 83,000 compounds, 20% with a hit somewhere; the sample as a whole holds those more often.
Reported Property: growth (%)
Enter your answer as a number in %; do not include the unit.

Previously resolved entries follow.
Compound: CC(C)N=C([Se])NC(=O)c1cccs1
System Name: HL-60(TB) leukemia
growth / %: 56
--
Compound: C[C@@H]1CN(c2ccc3ncc(C#Cc4cncc(C(=O)Nc5ccc(CN6CCN(C)CC6)c(C(F)(F)F)c5)c4)n3n2)C[C@@H](C)O1
System Name: HL-60(TB) leukemia
growth / %: -53.6
--
Compound: COc1ccc([C@H]2C(C(=O)c3ccc(Cl)cc3)C3(N[C@@H]2c2ccccc2)C(=O)Nc2ccccc23)cc1 (stereo partly drawn)
System Name: HL-60(TB) leukemia
growth / %: 29.2
--
Compound: Cc1nc(Nc2ccccn2)sc1C1=NNC(c2ccccc2F)C1 (stereo not drawn)
System Name: HL-60(TB) leukemia
growth / %: 4.96
--
Compound: COc1ccc(/C=N/NC(=O)Cn2nc(Cc3ccc(OC)cc3)c3onc(C)c3c2=O)cc1
System Name: HL-60(TB) leukemia
growth / %: 27.6
--
Compound: O=C(CNc1nc(-c2ccccc2)cs1)Nc1ccc([N+](=O)[O-])cc1
System Name: HL-60(TB) leukemia
growth / %: 5.69
--
Compound: CCCCSc1nc(Nc2ccc(C(C)=O)cc2)c(C#N)c(-c2ccc(OC)cc2)n1
System Name: HL-60(TB) leukemia
growth / %: 88
--
Compound: O=C(NO)c1ccc(CN2CCN(c3nc(-c4ccccc4)c4ccccc4n3)CC2)cc1
System Name: HL-60(TB) leukemia
growth / %: 7.7

Input line: I'd like to know its growth. The compound in question is C=C1CCC2C3(C)COC(c4c(F)cccc4F)OC3CCC2(C)C1CC(O)C1=CCOC1=O (stereo not drawn)
Output line: 81.6

Input line: Would you kindly share the measured growth for "O=c1[nH]n(C(=S)N/N=C/c2ccccc2Cl)c(=O)c2ccccc12" ?
Output line: -6.48

Input line: Any idea what growth was measured for "COc1cc2cc(C(=O)N3C[C@@H](CCl)c4c3cc(OC(=O)N(CCC(=O)N3CCN(C)CC3)C3CCCCC3)c3ccccc43)[nH]c2c(OC)c1OC" ?
Output line: -55.9

Input line: Fill blank: measured growth of the compound COc1ccc(N2N=C(c3ccc4c(c3)OCCO4)CC2c2cccc(NC(=O)CCCNS(=O)(=O)c3ccc(F)cc3)c2)cc1 (stereo not drawn) is ____.
Output line: 80.5

Input line: Find the recorded growth belonging to "Cn1cc(-c2cc3nc(-c4cn(C)c5ncccc45)cc(N)n3n2)c2ccccc21" and report it.
Output line: -44.8

Input line: Which growth reading was recorded for the compound Cc1ccc(C2CC(c3ccc(S(=O)(=O)NCCNc4nc(Nc5ccc(F)cc5)nc(N(C)C)n4)cc3)=Nc3c(N)nc(N)nc3N2)cc1 (stereo not drawn) ?
Output line: -10.4

Input line: I am curious: what growth value has been reported for COc1ccc(C2=NN(C(=O)[C@H]3[C@@H](c4ccco4)c4sc(=O)[nH]c4S[C@@H]3C)C(c3ccc4ccccc4c3)C2)cc1 (stereo partly drawn) ?
Output line: 2.93
